Data origin, for the record: patent US9221809B2

Target: IRAK4 (Homo sapiens (Human), UniProt Q9NWZ3)
Sequence (Q9NWZ3 whole entry): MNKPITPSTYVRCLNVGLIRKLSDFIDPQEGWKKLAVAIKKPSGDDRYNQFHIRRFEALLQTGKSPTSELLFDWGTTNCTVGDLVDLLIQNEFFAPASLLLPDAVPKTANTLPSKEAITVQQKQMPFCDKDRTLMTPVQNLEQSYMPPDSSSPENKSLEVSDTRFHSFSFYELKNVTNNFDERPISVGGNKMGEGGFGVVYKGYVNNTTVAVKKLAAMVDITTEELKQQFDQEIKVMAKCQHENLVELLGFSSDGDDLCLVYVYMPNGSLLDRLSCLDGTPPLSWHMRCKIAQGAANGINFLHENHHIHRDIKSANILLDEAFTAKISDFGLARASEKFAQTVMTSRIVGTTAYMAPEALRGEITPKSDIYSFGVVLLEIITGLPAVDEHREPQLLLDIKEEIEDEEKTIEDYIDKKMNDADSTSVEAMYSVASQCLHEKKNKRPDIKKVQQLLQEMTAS
Assay: IRAK4 kinase activity, IMAP fluorescence polarization assay
Assay type: biochemical
Details: 100 μM ATP, 0.5 nM GST tagged IRAK4; read-out: IRAK4 IC50
pIC50: −log10 of the molar value.
Listed here: items and their measured pIC50.

- COMPOUND: "O=c1[nH]c(N2CCCCC2)nc(N[C@@H]2CCCNC2)c1-c1nc2c(C3CC3)nccc2s1 [Example 117]"
  pIC50: 8.07
- COMPOUND: "C[C@@H]1CC[C@@H](Nc2nc(N3CCOCC3)[nH]c(=O)c2-c2nc3ccccc3s2)CN1 (racemic) [Example 124]"
  pIC50: 6.94
- COMPOUND: "O=c1[nH]c(NC2CCC2)nc(NC[C@H](O)CO)c1-c1nc2ccccc2s1 [Example 49]"
  pIC50: 5.27
- COMPOUND: "Cc1ccc2sc(-c3c(N[C@@H]4CCCNC4)nc(N4CCOCC4)[nH]c3=O)nc2c1 [Example 341, formic acid]"
  pIC50: 7.30
